All figures here come from patent US10208019B2.

target-or-system: human GLP-1R (Homo sapiens (Human), UniProt P43220, L260F)
Sequence (P43220 24-463 L260F): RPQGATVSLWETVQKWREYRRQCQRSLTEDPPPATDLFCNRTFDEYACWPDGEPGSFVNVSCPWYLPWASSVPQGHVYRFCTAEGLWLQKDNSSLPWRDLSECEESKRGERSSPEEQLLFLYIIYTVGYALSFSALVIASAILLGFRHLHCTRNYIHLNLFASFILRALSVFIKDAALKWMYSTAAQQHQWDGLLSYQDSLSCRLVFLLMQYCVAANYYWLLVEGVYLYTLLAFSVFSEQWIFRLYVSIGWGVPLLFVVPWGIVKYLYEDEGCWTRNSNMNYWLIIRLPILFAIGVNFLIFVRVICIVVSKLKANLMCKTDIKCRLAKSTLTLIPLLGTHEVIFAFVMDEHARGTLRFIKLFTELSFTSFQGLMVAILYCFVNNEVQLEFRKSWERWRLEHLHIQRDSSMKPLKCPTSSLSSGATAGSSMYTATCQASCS
experiment-notes: CHO GLP-1R Clone C6—Assay 2: HTRF cAMP cell-based functional agonist assay (low GLP-1R density)
condition-set: CHO GLP-1R Clone C6; relative to saturating concentration of full agonist GLP-1 (1 μM); arithmetic mean; read-out: Assay 2 Emax (%)
measurement-name: Emax (%)
Answers are plain numbers, in %.

query: Data request, read-out Emax, for N#Cc1ccc(COc2nc(C3CCN(Cc4nc5ccc(C(=O)O)cc5n4C[C@@H]4CCO4)CC3)ccc2F)cc1 [Example 10A-55]
result: 98

query: And then COC[C@@H]1C[C@H]1Cn1c(CN2CCC(c3cccc(OCc4ccc(Cl)cc4F)n3)CC2)nc2ccc(C(=O)O)cc21 , what is it?
result: 110

// each compound listed below needs its Emax
1. CCn1cncc1Cn1c(CN2CCC(c3cccc(OCc4ccc(C#N)cc4F)n3)CC2)nc2ccc(C(=O)O)nc21 [Example 10A-75]
2. C[C@H]1CN(c2cccc(OCc3ccc(C#N)cc3F)n2)CCN1Cc1nc2ccc(C(=O)O)nc2n1C[C@@H]1CCO1 [Example 10A-09]
3. N#Cc1ccc(COc2cccc(N3CCN(Cc4nc5ccc(C(=O)O)nc5n4C[C@@H]4CCO4)CC3)n2)c(F)c1 [Example 10A-77]
4. CCn1cncc1Cn1c(CN2CCC(c3cccc(OCc4ccc(C#N)cc4F)n3)CC2)nc2ccc(C(=O)O)cc21 [Example 10A-66]
5. COCCn1c(CN2CCC(c3cccc(OCc4ccc(C)cc4)n3)CC2)nc2ccc(C(=O)O)cc21

result:
[91, 120, 120, 100, 90]

// each compound listed below needs its Emax
1. CO[C@H]1CCC[C@H]1Cn1c(CN2CCC(c3cccc(OCc4ccc(Cl)cc4F)n3)CC2)nc2ccc(C(=O)O)cc21 (racemic)
2. CC[C@H]1CN(c2cccc(OCc3ccc(Cl)cc3F)n2)CCN1Cc1nc2ccc(C(=O)O)cc2n1CCOC [Example 12A-07]

result:
[86, 83]

// each compound listed below needs its Emax
1. O=C(O)c1ccc2nc(CN3CCN(c4cccc(OCc5ccc(Cl)cc5F)n4)CC3)n(Cc3cnco3)c2c1 [Example 10A-45]
2. Cn1c(CN2CCC(c3cccc(OCc4ccc(Cl)cc4F)n3)CC2)nc2ncc(C(=O)O)cc21
3. COCCn1c(CN2CCN(c3nc(OCc4ccc(Cl)cc4F)ccc3F)CC2)nc2ccc(C(=O)O)cc21

result:
1. 75
2. 92
3. 67

----------
target-or-system: human GLP-1R (Homo sapiens, UniProt P43220, G168S)
Sequence (P43220 24-463 G168S limits assumed): as the sequence (P43220 24-463 L260F) above, with G145S, F237L counted along it
experiment-notes: CHO GLP-1R Clone H6—Assay 1: HTRF cAMP cell-based functional agonist assay (high GLP-1R density)
condition-set: read-out: Assay 1 EC50; CHO GLP-1R Clone H6, cAMP HTRF; geometric mean
measurement-name: EC50 (µM)
Give bare numbers, in µM.

Field: example entries. Status: answers known.
query: Data request, read-out EC50, for COCCn1c(CN2CCC(c3cccc(OCc4ccc(C#N)cc4)n3)CC2)nc2ccc(C(=O)O)c(F)c21
result: 0.022

query: And then Cc1nnc(CCn2c(CN3CCC(c4cccc(OCc5ccc(Cl)cc5F)n4)CC3)nc3ccc(C(=O)O)cc32)o1 [Example 10A-28] , what is it?
result: 0.19

query: And then CCn1c(CN2CCC(c3cccc(OCc4ccc(Cl)cc4F)n3)CC2)nc2ccc(C(=O)O)cc21 [Example 10A-39] , what is it?
result: 0.17

query: And then N#Cc1ccc(COc2cccc(C3CCN(Cc4nc5ccc(C(=O)O)nc5n4Cc4ncco4)CC3)n2)c(F)c1 , what is it?
result: 0.0079

query: And then C[C@H]1CN(c2cccc(OCc3ccc(C#N)cc3)n2)CCN1Cc1nc2ccc(C(=O)O)cc2n1CC1CCCO1 (single isomer, unassigned; diastereomer 1) [Example 14A-07] , what is it?
result: 0.0019

// each compound listed below needs its EC50
1. Cn1cnnc1CCn1c(CN2CCC(c3cccc(OCc4ccc(Cl)cc4F)n3)CC2)nc2ccc(C(=O)O)cc21 [Example 11A-53]
2. Cn1cc(Cn2c(CN3CCC(c4cccc(OCc5ccc(Cl)cc5F)n4)CC3)nc3ccc(C(=O)O)cc32)cn1 [Example 11A-43]
3. COCCn1c(CN2CCN(c3cccc(OCc4ccc(Cl)cc4F)n3)[C@H](C)C2)nc2ccc(C(=O)O)cc21
4. CC(c1nncn1C)n1c(CN2CCC(c3cccc(OCc4ccc(Cl)cc4F)n3)CC2)nc2ccc(C(=O)O)cc21 (stereo not shown) [Example 11A-52]
5. C[C@H]1CN(c2cccc(OCc3ccc(Cl)cc3F)n2)CCN1Cc1nc2ccc(C(=O)O)nc2n1C[C@@H]1CCO1 [Example 10A-10]

result:
1. 0.45
2. 0.19
3. 0.047
4. 0.44
5. 0.0003
